Ref: paper PMC6585844

- Type: in vivo, human
- measurementParameters: human, plasma, po, 25 mg
observationType: Cmax (µg/mL)
Value expressed in µg/mL; do not type the unit.

Prompt: I have this compound here, NS(=O)(=O)c1cc(Cl)c(Cl)c(S(N)(=O)=O)c1 [dichlorphenamide] , and I need its recorded Cmax.
Completion: 0.298

----------
- measurementDescription: Multiple‐dose
- Assay type: in vivo, human
- measurementParameters: human, plasma, oral, 50 mg
observationType: Tmax (h)
Give a bare numeral; the unit h is implied.

Prompt: Field request: Tmax | item: NS(=O)(=O)c1cc(Cl)c(Cl)c(S(N)(=O)=O)c1 [dichlorphenamide]
Completion: 3

----------
- measurementDescription: Multiple‐dose
- Assay type: in vivo, human
- measurementParameters: human, plasma, oral, 400 mg
observationType: Tmax (h)
Report the figure in h without appending any unit label.

Prompt: Recorded Tmax of NS(=O)(=O)c1cc(Cl)c(Cl)c(S(N)(=O)=O)c1 [dichlorphenamide] , please.
Completion: 1

----------
- measurementDescription: Multiple‐dose
- Assay type: in vivo, human
- measurementParameters: human, plasma, oral, 100 mg
observationType: Tmax
Please report the result as a number followed by the unit.

Prompt: Which Tmax value is on record for NS(=O)(=O)c1cc(Cl)c(Cl)c(S(N)(=O)=O)c1 [dichlorphenamide] ?
Completion: 1.5 h

----------
- Type: in vivo, human
- measurementParameters: human, plasma, po, 200 mg
observationType: half-life (h)
Express your answer in h, writing the number without its unit.

Prompt: If you can, please state the reported half-life value of NS(=O)(=O)c1cc(Cl)c(Cl)c(S(N)(=O)=O)c1 [dichlorphenamide] .
Completion: 41

----------
- measurementDescription: Multiple‐dose
- Format: in vivo, human
- measurementParameters: human, plasma, oral, 50 mg
observationType: Cmax (ng/mL)
The reply should be a number in ng/mL, with the unit left off.

Prompt: Returns the measured Cmax for the input molecule. Input: NS(=O)(=O)c1cc(Cl)c(Cl)c(S(N)(=O)=O)c1 [dichlorphenamide]
Completion: 2220

----------
- Type: in vivo, human
- measurementParameters: human, plasma, po, 50 mg
observationType: half-life (h)
Give the value in h but do not write h after it.

Prompt: Need half-life of NS(=O)(=O)c1cc(Cl)c(Cl)c(S(N)(=O)=O)c1 [dichlorphenamide] , thanks.
Completion: 51.4

----------
- Type: in vivo, human
- measurementParameters: human, plasma, po, 25 mg
observationType: half-life

Prompt: half-life for NS(=O)(=O)c1cc(Cl)c(Cl)c(S(N)(=O)=O)c1 [dichlorphenamide] ?
Completion: 2.85 days

----------
- Type: in vivo, human
- measurementParameters: human, plasma, po, 50 mg
observationType: Cmax (ng/mL)
The reply should be a number in ng/mL, with the unit left off.

Prompt: Query: Cmax; subject: NS(=O)(=O)c1cc(Cl)c(Cl)c(S(N)(=O)=O)c1 [dichlorphenamide]
Completion: 709

----------
- measurementDescription: Multiple‐dose
- Type: in vivo, human
- measurementParameters: human, plasma, oral, 100 mg
observationType: Cmax
Give the figure together with its unit, number first.

Prompt: Can you look up the measured Cmax of NS(=O)(=O)c1cc(Cl)c(Cl)c(S(N)(=O)=O)c1 [dichlorphenamide] for me?
Completion: 4870 ng/mL

----------
- measurementDescription: Multiple‐dose
- Assay type: in vivo, human
- measurementParameters: human, plasma, oral, 25 mg
observationType: Tmax (h)
Response body: numeric value in h, unit text excluded.

Prompt: I have this molecule here, NS(=O)(=O)c1cc(Cl)c(Cl)c(S(N)(=O)=O)c1 [dichlorphenamide] , and I need its recorded Tmax.
Completion: 2
